# protocol_text: Half life in rat at 1 mg/kg, iv
# Type: ADME, organism-based
# Parameters: dose 1 mg/kg, route intravenous
# condition_context: in vivo
observable: half-life
Record the result as a number with its unit.

Reported half-life of `Cc1nc(N)nc(-c2c(Nc3cc[nH]n3)nc3ccccn23)n1` : 27 min

###

# protocol_text: Clearance in rat at 0.5 mg/kg, iv
# Type: ADME, organism-based
# Design: dose 0.5 mg/kg, route intravenous
# condition_context: in vivo
observable: clearance (mL/min/kg)
Answer with a number only, understood to be in mL/min/kg.

The compound listed as `Cc1nc(Nc2ccc(N3CCOCC3)nn2)cc(-c2c(Nc3ccn[nH]3)nc3cccnn23)n1` has a reported clearance of 41.7

The reported value for `COc1cnnc(Nc2cc(-c3c(Nc4cc[nH]n4)nc4cccnn34)nc(C)n2)c1` in terms of clearance is 103

clearance for `CC(=O)Nc1cc(-c2c(Nc3ccn(C)n3)nc3ccccn23)nc(C)n1` is 10

// field: clearance; key: `Cc1nccc(-c2c(Nc3ccn[nH]3)nc3cccnn23)n1` ; value = 31.7

Query `CC(=O)Nc1cc(-c2c(Nc3cc[nH]n3)nc3cccnn23)nc(C)n1` yields clearance of 43.3

What the record says about `CNc1cc(-c2c(Nc3cc[nH]n3)nc3cccnn23)nc(C)n1` : clearance is 80

The compound listed as `Cc1nc(N)nc(-c2c(Nc3cc[nH]n3)nc3ccccn23)n1` has a reported clearance of 30

Documented clearance of Cc1nc(Nc2cnn(C3CCOC3)c2)cc(-c2c(Nc3ccn[nH]3)nc3cccnn23)n1 (stereo not given) : 100

So for `Cc1nc(N)nc(-c2c(Nc3ccn(C)n3)nc3ccc(-c4cncnc4)cn23)n1` , the logged clearance turned out to be 41.7

The compound `CC(=O)Nc1cc(-c2c(Nc3cc[nH]n3)nc3ccccn23)nc(C)n1` showed clearance equal to 38.3

Value of measured clearance for the entry `Cc1nc(N)cc(-c2c(Nc3cc[nH]n3)nc3cccnn23)n1` : 38.3

The reported clearance of the compound `CC(=O)Nc1cc(-c2c(Nc3ccn(C)n3)nc3ccc(-c4cnn(C(C)C)c4)cn23)nc(C)n1` was 8.33

Query `CC(=O)Nc1cc(-c2c(Nc3ccn(C)n3)nc3ccc(-c4cnco4)cn23)nc(C)n1` yields clearance of 117

So, `CC(=O)Nc1cc(-c2c(Nc3ccn(C)n3)nc3cccnn23)nc(C)n1` ? Its clearance was 18.3

clearance recorded for this compound, `Cc1nc(Nc2cnccn2)cc(-c2c(Nc3ccn[nH]3)nc3cccnn23)n1` , is 96.7

###

# protocol_text: Apparent permeability from apical to basal side of pig LLC-PK1 cells
# Format: ADME, cell-based, Sus scrofa
Would you kindly list Papp A→B for each of these compounds?
A number alone suffices; assume ×10⁻⁶ cm/s.

The recorded Papp A→B for `Cc1nc(N)nc(-n2c(Nc3ccn[nH]3)nc3ccccc32)n1` is 20.3

compound `Cc1nc(N)nc(-c2c(Nc3cc[nH]n3)nc3ccccn23)n1` , Papp A→B observed: 13.8

###

# protocol_text: Volume of distribution at steady state in rat at 1 mg/kg, iv
# Format: ADME, organism-based
# Design: dose 1 mg/kg, route intravenous
# condition_context: in vivo, read-out: Vdss
observable: Vd (L/kg)
Kindly provide the numeric value in L/kg only, without the unit symbol.

Sure, the documented Vd for `Cc1nc(N)nc(-c2c(Nc3cc[nH]n3)nc3ccccn23)n1` is 1.1
